Kindly return yes if reported melting point is no lower than 200 °C; return no if it is lower.

INPUT: Does the compound Cc1cccc(NC(=S)NNC(=O)c2cccc(C(F)(F)F)c2)c1 [Compound 3d] have recorded melting point that is 200 °C or more?
OUTPUT: yes

INPUT: Does the compound O=C(NNC(=S)Nc1ccccc1)c1cccc(C(F)(F)F)c1 [Compound 3f] have recorded melting point that is 200 °C or more?
OUTPUT: no

INPUT: Does the compound COc1cccc(NC(=S)NNC(=O)c2cccc(C(F)(F)F)c2)c1 [Compound 3b] have recorded melting point that is 200 °C or more?
OUTPUT: no

INPUT: Does the compound CCCCNC(=S)NNC(=O)c1cccc(C(F)(F)F)c1 [Compound 3c] have recorded melting point that is 200 °C or more?
OUTPUT: no

INPUT: Does the compound O=C(NNC(=S)Nc1cccc(F)c1)c1cccc(C(F)(F)F)c1 [Compound 3e] have recorded melting point that is 200 °C or more?
OUTPUT: no

---

Test system: Staphylococcus aureus ATCC 43300
Assay: Broth microdilution MIC / MBC
Format: cell-based
Conditions: S. aureus ATCC 43300 (MRSA), read-out: MIC
Protocol: The microdilution method was used to determine the MIC values of newly synthesized compounds. […] A 96-well microtiter plate and microbroth two-fold dilution method was used to determine the minimum inhibitory concentration (MIC) according to the EUCAST (European Committee on Antimicrobial Susceptibility Testing) reference recommendation. […] After incubation, the growth of bacteria was monitored by a Biotek ELx800 (Biokom, Janki, Poland) spectrophotometer at 600 nm (OD600). […]
result.type: MIC

`O=C(NNC(=S)Nc1cccc(F)c1)c1cccc(C(F)(F)F)c1` tested on Staphylococcus aureus ATCC 43300 gave MIC: 31.2 µg/mL

`COc1cccc(NC(=S)NNC(=O)c2cccc(C(F)(F)F)c2)c1` tested on Staphylococcus aureus ATCC 43300 gave MIC: > 1000 µg/mL

`O=C(NNC(=S)Nc1cccc(Cl)c1)c1cccc(C(F)(F)F)c1` tested on Staphylococcus aureus ATCC 43300 gave MIC: 3.9 µg/mL

`CCCCNC(=S)NNC(=O)c1cccc(C(F)(F)F)c1` tested on Staphylococcus aureus ATCC 43300 gave MIC: > 1000 µg/mL

`Cc1cccc(NC(=S)NNC(=O)c2cccc(C(F)(F)F)c2)c1` tested on Staphylococcus aureus ATCC 43300 gave MIC: > 1000 µg/mL

`FC(F)(F)c1cccc(-c2n[nH]c(=S)n2-c2cccc(Cl)c2)c1` tested on Staphylococcus aureus ATCC 43300 gave MIC: > 1000 µg/mL

`O=C(NNC(=S)Nc1ccccc1)c1cccc(C(F)(F)F)c1` tested on Staphylococcus aureus ATCC 43300 gave MIC: > 1000 µg/mL

---

Tested on: SW 620 human metastatic colon cancer cells
Experiment: MTT cytotoxicity assay
Format: cell-based
Details: IC50 for normal cell line (V79)/IC50 cancer cell line (SW 620)
result.type: SI (Selectivity Index)
Form: value (number only, do not type unit).

Documented SI (Selectivity Index) of `COc1cccc(NC(=S)NNC(=O)c2cccc(C(F)(F)F)c2)c1` : 1

Documented SI (Selectivity Index) of `O=C(NNC(=S)Nc1cccc(Cl)c1)c1cccc(C(F)(F)F)c1` : 0.59

Documented SI (Selectivity Index) of `FC(F)(F)c1cccc(-c2n[nH]c(=S)n2-c2cccc(Cl)c2)c1` : 1

Documented SI (Selectivity Index) of `Cc1cccc(NC(=S)NNC(=O)c2cccc(C(F)(F)F)c2)c1` : 0.69

Documented SI (Selectivity Index) of `CCCCNC(=S)NNC(=O)c1cccc(C(F)(F)F)c1` : 1

Documented SI (Selectivity Index) of `O=C(NNC(=S)Nc1ccccc1)c1cccc(C(F)(F)F)c1` : 1
